# System: NCI-H358
# ASSAY EXPLANATION: relative viability (nuclei count vs DMSO), 5 days (fraction); higher = more cells survive
# SETTINGS: first compound 2 µM
PROPERTY LABEL: relative viability
The answer should be a number; do not append a unit.

{"COMPOUND": "COCC1(CO)C(=O)C2CCN1CC2 (stereo not given) [PRIMA-1MET] + O=C(c1cc(Cc2n[nH]c(=O)c3ccccc23)ccc1F)N1CCN(C(=O)C2CC2)CC1 [Olaparib] (partner 8 µM)", "TARGET UNDER TEST": "NCI-H358", "PROPERTY LABEL": "relative viability", "REPORTED MEASUREMENT": 0.601}
{"COMPOUND": "COCC1(CO)C(=O)C2CCN1CC2 (stereo not given) [PRIMA-1MET] + CC(=O)c1c(C)c2cnc(Nc3ccc(N4CCNCC4)cn3)nc2n(C2CCCC2)c1=O [Palbociclib] (partner 0.5 µM)", "TARGET UNDER TEST": "NCI-H358", "PROPERTY LABEL": "relative viability", "REPORTED MEASUREMENT": 0.115}
{"COMPOUND": "COCC1(CO)C(=O)C2CCN1CC2 (stereo not given) [PRIMA-1MET] + CCNC(=O)c1noc(-c2cc(C(C)C)c(O)cc2O)c1-c1ccc(CN2CCOCC2)cc1 [Luminespib] (partner 0.01 µM)", "TARGET UNDER TEST": "NCI-H358", "PROPERTY LABEL": "relative viability", "REPORTED MEASUREMENT": 0.354}
{"COMPOUND": "COCC1(CO)C(=O)C2CCN1CC2 (stereo not given) [PRIMA-1MET] + Nc1ncn([C@H]2C[C@H](O)[C@@H](CO)O2)c(=O)n1 [Decitabine] (partner 2 µM)", "TARGET UNDER TEST": "NCI-H358", "PROPERTY LABEL": "relative viability", "REPORTED MEASUREMENT": 0.215}

Suppose we examine the compound COCC1(CO)C(=O)C2CCN1CC2 (stereo not given) [PRIMA-1MET] + N=C(N)NC(=N)NCCc1ccccc1 [Phenformin] (partner 250 µM) ; what relative viability value has been reported? 0.253

---

# Tested on: LXF-289
# ASSAY EXPLANATION: relative viability (nuclei count vs DMSO), 5 days (fraction); higher = more cells survive
# SETTINGS: first compound 0.253 µM
PROPERTY LABEL: relative viability
The answer should be a number; do not append a unit.

Use these answered entries as a reference point.
{"COMPOUND": "COc1nc(C)cnc1NS(=O)(=O)c1cccnc1-c1ccc(-c2nnco2)cc1 [Zibotentan] + N=C(N)NC(=N)NCCc1ccccc1 [Phenformin] (partner 250 µM)", "relative viability": 0.489}
{"COMPOUND": "COc1nc(C)cnc1NS(=O)(=O)c1cccnc1-c1ccc(-c2nnco2)cc1 [Zibotentan] + CC(=O)c1c(C)c2cnc(Nc3ccc(N4CCNCC4)cn3)nc2n(C2CCCC2)c1=O [Palbociclib] (partner 0.5 µM)", "relative viability": 0.55}

Which relative viability is reported with LXF-289 for this entry: COc1nc(C)cnc1NS(=O)(=O)c1cccnc1-c1ccc(-c2nnco2)cc1 [Zibotentan] + CS(=O)(=O)CCNCc1ccc(-c2ccc3ncnc(Nc4ccc(OCc5cccc(F)c5)c(Cl)c4)c3c2)o1 [Lapatinib] (partner 2 µM) ? 0.886

---

# Test system: NCI-H2009
# ASSAY EXPLANATION: relative viability (nuclei count vs DMSO), 5 days (fraction); higher = more cells survive
# SETTINGS: first compound 2 µM
PROPERTY LABEL: relative viability

Use these answered entries as a reference point.
{"MOLECULE": "COCC1(CO)C(=O)C2CCN1CC2 (stereo unspecified) [PRIMA-1MET] + O=C(CCCCCCC(=O)Nc1ccccc1)NO [Vorinostat] (partner 1 µM)", "relative viability": 0.668}
{"MOLECULE": "COCC1(CO)C(=O)C2CCN1CC2 (stereo unspecified) [PRIMA-1MET] + C[C@]1(O)C[C@@H](c2nc(-c3ccc4ccc(-c5ccccc5)nc4c3)c3c(N)nccn32)C1 [Linsitinib] (partner 1 µM)", "relative viability": 1.22}
{"MOLECULE": "COCC1(CO)C(=O)C2CCN1CC2 (stereo unspecified) [PRIMA-1MET] + CC(=O)c1c(C)c2cnc(Nc3ccc(N4CCNCC4)cn3)nc2n(C2CCCC2)c1=O [Palbociclib] (partner 0.5 µM)", "relative viability": 0.112}
{"MOLECULE": "COCC1(CO)C(=O)C2CCN1CC2 (stereo unspecified) [PRIMA-1MET] + CS(=O)(=O)CCNCc1ccc(-c2ccc3ncnc(Nc4ccc(OCc5cccc(F)c5)c(Cl)c4)c3c2)o1 [Lapatinib] (partner 2 µM)", "relative viability": 0.669}
{"MOLECULE": "COCC1(CO)C(=O)C2CCN1CC2 (stereo unspecified) [PRIMA-1MET] + COc1cc2c(Oc3ccc(NC(=O)C4(C(=O)Nc5ccc(F)cc5)CC4)cc3F)ccnc2cc1OCCCN1CCOCC1 [Foretinib] (partner 0.25 µM)", "relative viability": 1.22}

Here's the next entry for you.
Suppose we examine the molecule COCC1(CO)C(=O)C2CCN1CC2 (stereo unspecified) [PRIMA-1MET] + Cc1cc(Nc2cc(N3CCN(C)CC3)nc(Sc3ccc(NC(=O)C4CC4)cc3)n2)n[nH]1 [Tozasertib] (partner 0.1 µM) ; what relative viability value has been reported? 0.948

---

# Test system: NCI-H1355
# ASSAY EXPLANATION: relative viability (nuclei count vs DMSO), 5 days (fraction); higher = more cells survive
# SETTINGS: first compound 0.8 µM
# strict inequality: relative viability < 0.9 yields yes (1), everything else yields no (0)

A selection of reference data follows.
{"COMPOUND": "COc1nc(C)cnc1NS(=O)(=O)c1cccnc1-c1ccc(-c2nnco2)cc1 [Zibotentan] + Cc1cc(Nc2cc(N3CCN(C)CC3)nc(Sc3ccc(NC(=O)C4CC4)cc3)n2)n[nH]1 [Tozasertib] (partner 0.1 µM)", "TARGET UNDER TEST": "NCI-H1355", "CLASS": "yes (1)"}
{"COMPOUND": "COc1nc(C)cnc1NS(=O)(=O)c1cccnc1-c1ccc(-c2nnco2)cc1 [Zibotentan] + CC(C)C[C@H](NC(=O)[C@H](Cc1ccccc1)NC(=O)c1cnccn1)B(O)O [Bortezomib] (partner 0.002 µM)", "TARGET UNDER TEST": "NCI-H1355", "CLASS": "no (0)"}
{"COMPOUND": "COc1nc(C)cnc1NS(=O)(=O)c1cccnc1-c1ccc(-c2nnco2)cc1 [Zibotentan] + CS(=O)(=O)N1CCN(Cc2cc3nc(-c4cccc5[nH]ncc45)nc(N4CCOCC4)c3s2)CC1 [Pictilisib] (partner 1 µM)", "TARGET UNDER TEST": "NCI-H1355", "CLASS": "yes (1)"}

Kindly review the next compound as well.
I'd appreciate it if you could check whether COc1nc(C)cnc1NS(=O)(=O)c1cccnc1-c1ccc(-c2nnco2)cc1 [Zibotentan] + CS(=O)(=O)CCNCc1ccc(-c2ccc3ncnc(Nc4ccc(OCc5cccc(F)c5)c(Cl)c4)c3c2)o1 [Lapatinib] (partner 2 µM) has relative viability smaller than 0.9. no (0)

---

// relative viability lookup, one value per entry
# Test system: HCC-78
# ASSAY EXPLANATION: relative viability (nuclei count vs DMSO), 5 days (fraction); higher = more cells survive
# SETTINGS: first compound 0.6325 µM
The answer should be a number; do not append a unit.

Suppose we examine the compound COCC1(CO)C(=O)C2CCN1CC2 (stereo not given) [PRIMA-1MET] + Nc1nc2[nH]cc(CCc3ccc(C(=O)N[C@@H](CCC(=O)O)C(=O)O)cc3)c2c(=O)[nH]1 [Pemetrexed] (partner 0.2 µM) ; what relative viability value has been reported? 0.886

Suppose we examine the compound COCC1(CO)C(=O)C2CCN1CC2 (stereo not given) [PRIMA-1MET] + CC(C)C[C@H](NC(=O)[C@H](Cc1ccccc1)NC(=O)c1cnccn1)B(O)O [Bortezomib] (partner 0.002 µM) ; what relative viability value has been reported? 0.521

Suppose we examine the compound COCC1(CO)C(=O)C2CCN1CC2 (stereo not given) [PRIMA-1MET] + CC(=O)c1c(C)c2cnc(Nc3ccc(N4CCNCC4)cn3)nc2n(C2CCCC2)c1=O [Palbociclib] (partner 0.5 µM) ; what relative viability value has been reported? 0.507

Suppose we examine the compound COCC1(CO)C(=O)C2CCN1CC2 (stereo not given) [PRIMA-1MET] + O=C(c1cc(Cc2n[nH]c(=O)c3ccccc23)ccc1F)N1CCN(C(=O)C2CC2)CC1 [Olaparib] (partner 8 µM) ; what relative viability value has been reported? 1.06

Suppose we examine the compound COCC1(CO)C(=O)C2CCN1CC2 (stereo not given) [PRIMA-1MET] + N=C(N)NC(=N)NCCc1ccccc1 [Phenformin] (partner 250 µM) ; what relative viability value has been reported? 0.648

Suppose we examine the compound COCC1(CO)C(=O)C2CCN1CC2 (stereo not given) [PRIMA-1MET] + COc1cccc2cc(-c3nc([C@H]4CC[C@H](C(=O)O)CC4)n4ncnc(N)c34)[nH]c12 [OSI-027] (partner 0.5 µM) ; what relative viability value has been reported? 0.345

Suppose we examine the compound COCC1(CO)C(=O)C2CCN1CC2 (stereo not given) [PRIMA-1MET] + NC(=O)Nc1cc(-c2cccc(F)c2)sc1C(=O)N[C@H]1CCCNC1 [AZD7762] (partner 0.2 µM) ; what relative viability value has been reported? 0.62

Suppose we examine the compound COCC1(CO)C(=O)C2CCN1CC2 (stereo not given) [PRIMA-1MET] + CS(=O)(=O)CCNCc1ccc(-c2ccc3ncnc(Nc4ccc(OCc5cccc(F)c5)c(Cl)c4)c3c2)o1 [Lapatinib] (partner 2 µM) ; what relative viability value has been reported? 0.539

Suppose we examine the compound COCC1(CO)C(=O)C2CCN1CC2 (stereo not given) [PRIMA-1MET] + CS(=O)(=O)N1CCN(Cc2cc3nc(-c4cccc5[nH]ncc45)nc(N4CCOCC4)c3s2)CC1 [Pictilisib] (partner 1 µM) ; what relative viability value has been reported? 0.222

Suppose we examine the compound COCC1(CO)C(=O)C2CCN1CC2 (stereo not given) [PRIMA-1MET] + Nc1ncn([C@H]2C[C@H](O)[C@@H](CO)O2)c(=O)n1 [Decitabine] (partner 2 µM) ; what relative viability value has been reported? 0.598
